Target: human recombinant serotonin (5-Hydroxytryptamine) 5-HT2C receptor (Homo sapiens, UniProt P28335)
Construct: expressed in transfected cells; host or cells: CHO-K1 cells
Test: Serotonin 5-HT2C radioligand binding ([3H]Mesulergine)
Conditions: compound at 1 μM; read-out: Serotonin (1 μM) 5-HT2C, percent inhibition of specific binding
Listing of recorded inhibition at 1 µM by entry.

COc1ccc(C(O)Cn2c3c(c4cc(C)ccc42)CCN(C)CC3)cc1F (stereo not shown); 95%
CN1CCc2c(n(CC(C)(O)c3ccc(Cl)cc3)c3ccc(Cl)cc23)CC1 (stereo not shown); 92%
Cc1ccc2c(c1)c1c(n2CCc2ccc(C(F)(F)F)nc2)CCN(C)CC1; 77%

Okay, next one:
Give its inhibition at 1 µM value. Item: CN1CCc2c(n(CCc3ccncc3)c3ccc(Cl)cc23)CC1
90%

###

Molecular target: human recombinant adrenergic α1D receptor (Homo sapiens)
Construct: expressed in transfected cells; host or cells: HEK-293 cells
Sequence (P25100 whole entry): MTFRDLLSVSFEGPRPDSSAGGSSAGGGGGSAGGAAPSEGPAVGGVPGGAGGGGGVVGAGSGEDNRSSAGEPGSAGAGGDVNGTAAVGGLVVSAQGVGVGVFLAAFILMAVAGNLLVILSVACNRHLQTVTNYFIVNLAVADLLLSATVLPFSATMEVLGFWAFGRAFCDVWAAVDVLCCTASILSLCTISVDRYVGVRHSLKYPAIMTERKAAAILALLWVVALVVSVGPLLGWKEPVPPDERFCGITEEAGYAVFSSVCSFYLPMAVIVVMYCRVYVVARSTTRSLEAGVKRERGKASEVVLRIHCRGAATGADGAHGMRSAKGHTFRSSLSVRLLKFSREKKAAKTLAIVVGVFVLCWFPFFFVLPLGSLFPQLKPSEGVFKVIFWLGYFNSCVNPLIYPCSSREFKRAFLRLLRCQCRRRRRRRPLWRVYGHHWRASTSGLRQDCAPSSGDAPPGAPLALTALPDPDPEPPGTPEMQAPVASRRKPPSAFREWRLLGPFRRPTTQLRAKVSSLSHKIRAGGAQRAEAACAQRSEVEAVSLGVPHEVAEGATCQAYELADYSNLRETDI
Test: Adrenergic alpha1D radioligand binding ([3H]Prozosin)
Details: compound at 1 μM; read-out: Adrenergic (1 μM) α1D, percent inhibition of specific binding
Measured Endpoint: inhibition at 1 µM (%)
Give the quantity in %, number only.

Known inhibition at 1 µM results, listed for orientation:
COc1ccc(/C=C/n2c3c(c4cc(Cl)ccc42)CCN(C)CC3)cc1; 102
CN1CCc2c(n(CCc3ccccc3Cl)c3ccc(Cl)cc23)CC1; 71
Cc1ccc(C(O)Cn2c3c(c4cc(Cl)ccc42)CCN(C)CC3)cc1 (stereo not shown); 94

Okay, next one:
Give its inhibition at 1 µM value. Item: COc1ccc(C(O)Cn2c3c(c4cc(C)ccc42)CCN(C)CC3)cc1OC (stereo not shown)
73

###

Molecular target: human recombinant adrenergic α2A receptor (Homo sapiens, UniProt P08913)
Construct: expressed in transfected cells; host or cells: insect Sf9 cells
Sequence (P08913 1-465): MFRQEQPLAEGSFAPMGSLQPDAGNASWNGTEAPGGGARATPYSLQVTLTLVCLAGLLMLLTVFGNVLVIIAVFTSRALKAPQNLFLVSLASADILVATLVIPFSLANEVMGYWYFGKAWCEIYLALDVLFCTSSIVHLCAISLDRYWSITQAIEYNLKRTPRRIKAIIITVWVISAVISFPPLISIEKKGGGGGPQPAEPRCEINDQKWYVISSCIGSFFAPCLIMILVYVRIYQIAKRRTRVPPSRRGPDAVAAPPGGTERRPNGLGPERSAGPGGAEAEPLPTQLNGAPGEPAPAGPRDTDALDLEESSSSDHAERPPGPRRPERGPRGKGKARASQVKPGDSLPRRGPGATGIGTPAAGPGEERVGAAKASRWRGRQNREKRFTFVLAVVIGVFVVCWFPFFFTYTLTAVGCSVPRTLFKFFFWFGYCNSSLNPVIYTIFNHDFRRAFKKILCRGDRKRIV
Test: Adrenergic alpha2A radioligand binding ([3H]MK-912)
Details: compound at 1 μM; read-out: Adrenergic (1 μM) α2A, percent inhibition of specific binding
Measured Endpoint: inhibition at 1 µM (%)
Give the quantity in %, number only.

Known inhibition at 1 µM results, listed for orientation:
C/C(=C/n1c2c(c3cc(Cl)ccc31)CCN(C)CC2)c1ccc(Cl)cc1Cl; 93
CN1CCc2c(n(CCc3ccc(C(F)(F)F)nc3)c3ccc(Cl)cc23)CC1; 90
Cc1ccc2c(c1)c1c(n2CCc2cncc(Cl)c2)CCN(C)CC1; 85

Okay, next one:
Give its inhibition at 1 µM value. Item: C=C(Cn1c2c(c3cc(Cl)ccc31)CCN(C)CC2)c1ccc(F)cc1
96

###

Target: human recombinant adrenergic α2A receptor (Homo sapiens, UniProt P08913)
Construct: expressed in transfected cells; host or cells: insect Sf9 cells
Assay: Adrenergic alpha2A radioligand binding ([3H]MK-912)
Details: compound at 1 μM; read-out: Adrenergic (1 μM) α2A, percent inhibition of specific binding
Listing of recorded inhibition at 1 µM by entry.
Give the quantity in %, number only.

Known inhibition at 1 µM results, listed for orientation:
Cc1ccc2c(c1)c1c(n2CCc2ccccc2)CCN(C)CC1 [Compound No. 62]; 11
CN1CCc2c(n(CC(O)c3ccc(F)cc3)c3ccc(Cl)cc23)CC1 (stereo not drawn) [Compound No. 51]; 98

Okay, next one:
Param readout = inhibition at 1 µM; param system = human recombinant adrenergic α2A receptor (Homo sapiens, UniProt P08913); param query = CN1CCc2c(n(CCc3ccccc3F)c3ccc(Cl)cc23)CC1 [Compound No. 61] ; response: value
23

###

Target: human recombinant adrenergic α2B receptor (Homo sapiens, UniProt P18089)
Construct: expressed in transfected cells; host or cells: CHO-K1 cells
Sequence (P18089 whole entry): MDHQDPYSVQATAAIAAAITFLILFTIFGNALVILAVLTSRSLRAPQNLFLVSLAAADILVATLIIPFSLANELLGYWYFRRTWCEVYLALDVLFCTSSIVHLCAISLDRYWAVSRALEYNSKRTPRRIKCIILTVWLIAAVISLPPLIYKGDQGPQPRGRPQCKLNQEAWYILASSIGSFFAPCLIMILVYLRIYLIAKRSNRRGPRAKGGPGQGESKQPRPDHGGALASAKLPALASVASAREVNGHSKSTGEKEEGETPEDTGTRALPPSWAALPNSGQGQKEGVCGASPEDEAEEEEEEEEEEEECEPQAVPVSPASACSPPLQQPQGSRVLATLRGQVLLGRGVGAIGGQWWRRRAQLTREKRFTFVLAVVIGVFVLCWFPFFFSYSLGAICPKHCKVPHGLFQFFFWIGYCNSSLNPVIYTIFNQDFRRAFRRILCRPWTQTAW
Test: Adrenergic alpha2B radioligand binding ([3H]Rauwolscine)
Conditions: compound at 1 μM; read-out: Adrenergic (1 μM) α2B, percent inhibition of specific binding
Measured Endpoint: inhibition at 1 µM (%)
Give the quantity in %, number only.

COc1ccc(/C=C/n2c3c(c4cc(Cl)ccc42)CCN(C)CC3)cc1F [Compound No. 158]; 109
CN1CCc2c(n(CC(C)(O)c3ccc(F)cc3)c3ccc(Cl)cc23)CC1 (stereo not shown) [Compound No. 13]; 105
Cc1ccc2c(c1)c1c(n2CC(O)c2ccccc2F)CCN(C)CC1 (stereo not shown) [Compound No. 41]; 104

Okay, next one:
Give its inhibition at 1 µM value. Item: COc1ccc(/C=C/n2c3c(c4cc(C)ccc42)CCN(C)CC3)c(F)c1 [Compound No. 230]
99

###

Listing of recorded inhibition at 1 µM by entry.
Biological target: human recombinant serotonin (5-Hydroxytryptamine) 5-HT2A receptor (Homo sapiens, UniProt P28223)
Construct: expressed in transfected cells; host or cells: CHO-K1 cells
Sequence (P28223 whole entry): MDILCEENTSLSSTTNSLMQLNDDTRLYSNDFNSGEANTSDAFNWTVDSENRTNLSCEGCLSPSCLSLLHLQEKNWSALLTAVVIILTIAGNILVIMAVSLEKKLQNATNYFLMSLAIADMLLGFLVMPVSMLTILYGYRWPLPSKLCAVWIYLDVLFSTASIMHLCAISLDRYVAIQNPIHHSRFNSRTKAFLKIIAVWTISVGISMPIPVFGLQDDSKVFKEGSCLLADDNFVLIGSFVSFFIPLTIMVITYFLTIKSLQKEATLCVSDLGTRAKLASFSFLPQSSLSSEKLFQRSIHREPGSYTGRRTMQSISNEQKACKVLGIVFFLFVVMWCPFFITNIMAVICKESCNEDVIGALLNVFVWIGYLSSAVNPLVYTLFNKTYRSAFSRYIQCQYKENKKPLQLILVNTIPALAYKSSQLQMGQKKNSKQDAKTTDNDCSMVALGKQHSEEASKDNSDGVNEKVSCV
Assay: Serotonin 5-HT2A radioligand binding ([3H]Ketanserin)
Conditions: compound at 1 μM; read-out: Serotonin (1 μM) 5-HT2A, percent inhibition of specific binding
Give the quantity in %, number only.

Known inhibition at 1 µM results, listed for orientation:
C/C(=C\n1c2c(c3cc(Cl)ccc31)CCN(C)CC2)c1ccc(Cl)cc1Cl [Compound No. 239]; 102
C/C(=C\n1c2c(c3cc(C)ccc31)CCN(C)CC2)c1cccc(F)c1 [Compound No. 252]; 96
CN1CCc2c(n(CC(=O)N3CCCCC3)c3ccc(Cl)cc23)CC1 [Compound No. 57]; 10
COc1ccc(C(O)Cn2c3c(c4cc(Cl)ccc42)CCN(C)CC3)cc1OC (centres unmarked) [Compound No. 77]; 90
C/C(=C/n1c2c(c3cc(C)ccc31)CCN(C)CC2)c1ccc(Cl)cc1Cl [Compound No. 174]; 102

Give its inhibition at 1 µM value. Item: COc1ccc(C(O)Cn2c3c(c4cc(C)ccc42)CCN(C)CC3)cc1F (centres unmarked) [Compound No. 68]
99

Give its inhibition at 1 µM value. Item: C/C(=C/n1c2c(c3cc(Cl)ccc31)CCN(C)CC2)c1cccc(F)c1 [Compound No. 249]
100

Give its inhibition at 1 µM value. Item: CN1CCc2c(n(/C=C/c3ccc(F)c(F)c3)c3ccc(Cl)cc23)CC1 [Compound No. 236]
101

###

Biological target: human recombinant serotonin (5-Hydroxytryptamine) 5-HT2C receptor (Homo sapiens, UniProt P28335)
Construct: expressed in transfected cells; host or cells: CHO-K1 cells
Sequence (P28335 33-458): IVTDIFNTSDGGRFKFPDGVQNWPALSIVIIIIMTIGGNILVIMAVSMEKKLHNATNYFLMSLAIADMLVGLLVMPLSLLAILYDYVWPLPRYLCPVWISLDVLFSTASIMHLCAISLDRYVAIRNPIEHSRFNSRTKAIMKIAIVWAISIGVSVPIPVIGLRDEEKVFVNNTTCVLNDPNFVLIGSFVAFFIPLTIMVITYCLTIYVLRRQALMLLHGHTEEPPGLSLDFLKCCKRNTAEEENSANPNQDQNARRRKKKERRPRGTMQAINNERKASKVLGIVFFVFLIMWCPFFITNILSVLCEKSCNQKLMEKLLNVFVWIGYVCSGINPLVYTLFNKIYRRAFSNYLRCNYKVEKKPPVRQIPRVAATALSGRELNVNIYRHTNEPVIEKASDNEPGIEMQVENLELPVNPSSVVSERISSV
Test: Serotonin 5-HT2C radioligand binding ([3H]Mesulergine)
Conditions: compound at 1 μM; read-out: Serotonin (1 μM) 5-HT2C, percent inhibition of specific binding
Listing of recorded inhibition at 1 µM by entry.
Give the quantity in %, number only.

Cc1ccc2c(c1)c1c(n2CCc2ccccn2)CCN(C)CC1; 93

Give its inhibition at 1 µM value. Item: COc1ccc(/C(C)=C/n2c3c(c4cc(C)ccc42)CCN(C)CC3)cc1
102

Give its inhibition at 1 µM value. Item: COc1ccc(C(O)Cn2c3c(c4cc(Cl)ccc42)CCN(C)CC3)cc1F (stereo not drawn)
93

Give its inhibition at 1 µM value. Item: Cc1ccc2c(c1)c1c(n2CC(O)c2ccc(F)cc2)CCN(C)CC1 (stereo not drawn)
96

Give its inhibition at 1 µM value. Item: C/C(=C\n1c2c(c3cc(Cl)ccc31)CCN(C)CC2)c1ccc(Cl)cc1
83
